value-type: melting point

# compound, melting point
rows = [
    ("CCNCC1CCN(c2c(F)cc3c(=O)c(C(=O)O)cn(C4(C)CC4)c3c2F)C1 (stereo not given)", "261 to 263 °C"),
    ("COc1cccc(N2CCN(c3c(C)c(C)c4c(c3C)C(N3CCCC3)C(C)(C)O4)CC2)c1 (stereo not given)", "106 to 107 °C"),
    ("O=c1[nH]ncc(Cl)c1NCCN1CCN(c2cccc(C(F)(F)F)c2)CC1", "220 to 223 °C"),
]

// for each compound below, give its melting point
1. COc1ccc2cc([C@H](C)C(=O)OCCS(=O)(=O)CCO)ccc2c1
2. COc1ccc2c(c1)CCC1C2CCC2(C)C(=O)CC(C)(C(C)C)C12 (stereo not given)

stdout:
1: 81 to 84 °C; 2: 113 to 115 °C

* * *

value-type: melting point

Some entries whose results are on file:
# molecule, melting point
records = [
    ("CCCCc1nc2c(N)nc3ccccc3c2n1CCCCC(N)=O", "219 to 221 °C"),
    ("CC(=O)OCC1OC(O)(c2ccc(Cl)cc2)C(OC(C)=O)C(OC(C)=O)C1OC(C)=O (stereo not given)", "124 °C"),
    ("COc1cc(-c2nc3ccc(OCCN(C)C)cc3n2Cc2ccccc2Br)cc(OC)c1OC", "152 °C"),
    ("CC(C)(OCc1cc2cc(C(F)(F)F)ccc2n1S(=O)(=O)c1ccc2ncsc2c1)C(=O)O", "98 to 100 °C"),
    ("CCCC12CCC(=O)C=C1c1c(cc(CCC(=O)O)c(Cl)c1Cl)C2 (stereo not given)", "201 to 203 °C"),
    ("CCOC(=O)C(C)(C)CCCCCOc1ccc(NC(=O)CCCCCn2ccnc2)cc1", "59 °C"),
    ("Cc1cc(C=O)c2cccc(OCc3ccccc3)c2n1", "129 °C"),
    ("CCCCSc1cc(N)c([N+](=O)[O-])cc1N", "129 °C"),
]

// for each molecule below, give its melting point
1. O=c1cc2c(nn1-c1ccc(Cl)cc1)-c1ccccc1S(=O)(=O)CC2
2. Cc1ccc(Cc2c[nH]c(NCCCC3CCCc4cccnc43)nc2=O)cn1 (stereo not given)
3. Cc1cc(N2CCC(N3CCCC3C)C2)ccc1C(=O)NC1CCOCC1 (stereo not given)
4. CCOC(=O)C(=C(c1ccc(F)cc1)c1ccc(F)cc1)n1nnnc1-c1ccccc1
5. Cc1cc(C=O)ccc1C(=O)O
6. CN1C=C(N2CCCC2)c2ccc3ccccc3c2S1(=O)=O

stdout:
> 310 °C
75 to 80 °C
147 °C
149 to 150 °C
196 to 198 °C
176 to 178 °C

// for each molecule below, give its melting point
1. COc1cc2c(Nc3cccc(Cl)c3F)ncnc2cc1OC1CCN(C(=O)C2CCCO2)CC1 (stereo not given)
2. COC(=O)c1cc(Nc2ccc(C)cc2)c(C(=O)OC)cc1Nc1ccc(C)cc1
3. COc1ccc2nc(Cl)c(Cl)nc2c1
4. N#Cc1cccc(C2=Nc3ccc(C=Cc4ccccc4)cc3NC(=O)C2)c1

stdout:
1. 193 to 194 °C
2. 205 to 207 °C
3. 156 to 159 °C
4. 185 to 188 °C

// for each molecule below, give its melting point
1. COC(=O)c1cccc2nc(OC)n(Cc3ccc(-c4ccccc4-c4nnn[nH]4)cc3)c12
2. CNC(=O)C#CCc1ccc(OC)cc1
3. CS(=O)(=O)c1cccc(C(Cc2ccc(F)cc2)C(=O)Nc2nc3ccccc3o2)c1 (stereo not given)
4. CC(C)C[C@H](NC(=O)OCc1ccccc1)C(=O)N[C@@H](Cc1ccccc1)C(=O)CSCCN(C)C
5. Cc1ccc(C)c(-c2sc(NC(=O)[C@@H]3C[C@@H]4CC[C@H]3C4)c(C#N)c2Cl)c1
6. CCS(=O)(=O)NC(=O)CCCCC1CCSS1 (stereo not given)
7. CC(C)(C)c1ccc(C2CCCN3CCS(=O)(=O)N=C23)cc1 (stereo not given)

stdout:
["165 to 166 °C", "123 to 124 °C", "99 to 100 °C", "67 to 69 °C", "117 to 119 °C", "98 to 100 °C", "232 to 236 °C"]

// for each molecule below, give its melting point
1. O=C1C=C(Oc2ccc(Oc3ccccc3)cc2)C(O)O1 (stereo not given)
2. CCCCCCOc1ccc2cc(C(C)C(=O)O)ccc2c1 (stereo not given)
3. S=c1[nH]c2cccc(OCCNCc3cccc4ccccc34)c2[nH]1

stdout:
1: 107 to 108 °C; 2: 88 to 91 °C; 3: 191 to 193 °C

// for each molecule below, give its melting point
1. CC(=O)Oc1c(Cl)c(C)nc(C)c1-c1ccc(Oc2ccc(OC(F)(F)F)cc2)cc1
2. O=C(O)c1ccccc1-c1ccc(CO)cc1
3. O=C1NCCN1CCN1CCN([C@@H]2C[C@@H](c3ccc(F)cc3)c3ccccc32)CC1
4. NC1=C(N)C(=O)C(N)=C(N)C1=O
5. OCc1ccccc1NCc1cc2c(cc1O)CCCO2
6. COC1(c2nc3ccccc3s2)C=CC(=O)C=C1
7. COc1ccc(NC(=O)Nc2c(C)cc(Oc3ccc4nc(COc5ccc(CC6SC(=O)NC6=O)cc5)n(C)c4c3)cc2C)cc1 (stereo not given)

stdout:
78 to 80 °C
140 to 142 °C
94 to 97 °C
260 to 262 °C
141 to 142 °C
123 °C
229 to 231 °C

// for each molecule below, give its melting point
1. CC(=O)OC1Cc2ccc([N+](=O)[O-])cc2C1 (stereo not given)
2. CC1(C)CN(Cc2cc3ncccc3o2)c2nc(-c3ccncc3)cc(=O)n2C1

stdout:
84 to 85 °C
170 to 171 °C

// for each molecule below, give its melting point
1. COC(=O)CSc1c(C)cc(C(O)(C(F)(F)F)C(F)(F)F)cc1C
2. COc1cc(C2CCN(CC(N)=O)CC2)ccc1Nc1ncc2ccc(-c3ccccc3N(C)S(C)(=O)=O)n2n1
3. NS(=O)(=O)CCCSc1ccc2ncc(Cl)n2n1

stdout:
1: 99 to 101 °C; 2: 103 to 112 °C; 3: 136 to 137 °C
